# target-or-test-system: Aryl hydrocarbon receptor (Homo sapiens)
# assay-summary: qHTS assay to identify small molecule that activate the aryl hydrocarbon receptor (AhR) signaling pathway (AID 743085);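 further: HG2L7.5c1 human HepG2 liver cells with stably integrated DRE-driven firefly reporter; nearly all actives have a fitted effect of over 15% in size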
# cond: HepG2 AhR-luc (HG2L7.5c1), luciferase, 24 h; series mostly up to 70.3 µM
Inconclusive results are not listed. The source made the active and inactive calls. The call rests on the fitted dose curve; in most records, active means well fitted activation curve with a large enough effect in the repeat runs; inconclusive means weak or mixed curves; inactive means no such curve, though single readings can be large or run the other way.

# structure, outcome
data = [
    ("CN(C)C(=O)Nc1cccc(C(F)(F)F)c1", "inactive"),
    ("Cc1cc(O)ccc1Cl", "inactive"),
    ("OC[C@@H](O)[C@H]1O[C@@H]2O[C@H](C(Cl)(Cl)Cl)O[C@@H]2[C@H]1O", "inactive"),
]

* * *

# assay-summary: qHTS assay to identify small molecule phospholipidosis (PLD) inducers (AID 1259344)
# cond: HepG2 phospholipidosis, LipidTOX Red imaging, 24 h; series mostly up to 38.3 µM
Results filed as inconclusive are left out. Calls of active or inactive are those of the source. The call rests on the fitted dose curve; in most records, active means well fitted activation curve with a large enough effect; inconclusive means small, poorly fitted or top-dose-only effect; inactive means flat fitted curve, though single readings scatter.
Labels: yes for active, no for inactive

# compound, assigned-category
records = [
    ("Cc1cccc(C)c1NC(=O)CN1CCCC1=O", "no"),
    ("Nc1ccc([As](=O)(O)O)cc1", "no"),
    ("NNc1ccccc1", "no"),
    ("[N-]=[N+]=CC(=O)OC[C@H](N)C(=O)O", "no"),
    ("Nc1ccc(N)cc1", "no"),
    ("O=C(O)COc1ccccc1", "no"),
    ("Nc1nc(N)nc(NC2CC2)n1", "no"),
    ("C=CCN=C=S", "no"),
    ("OC[C@@H](O)[C@H]1O[C@@H]2O[C@H](C(Cl)(Cl)Cl)O[C@@H]2[C@H]1O", "no"),
    ("CN1C(=O)CCS(=O)(=O)C1c1ccc(Cl)cc1 (stereo unspecified)", "no"),
    ("Oc1ccc(Cl)cc1", "no"),
    ("Oc1c(Br)cc(Br)cc1Br", "no"),
    ("O=C(O)CCCc1ccc(N(CCCl)CCCl)cc1", "no"),
    ("CNC(=O)Oc1cccc2ccccc12", "no"),
    ("C[C@]12CC[C@H](O)CC1=CC[C@@H]1[C@@H]2CC[C@]2(C)C(=O)CC[C@@H]12", "yes"),
    ("O=C/C=C/c1ccccc1", "no"),
]

* * *

# target-or-test-system: Estrogen receptor beta (Homo sapiens) (UniProt Q92731)
# Sequence (Q92731 whole entry, looked up): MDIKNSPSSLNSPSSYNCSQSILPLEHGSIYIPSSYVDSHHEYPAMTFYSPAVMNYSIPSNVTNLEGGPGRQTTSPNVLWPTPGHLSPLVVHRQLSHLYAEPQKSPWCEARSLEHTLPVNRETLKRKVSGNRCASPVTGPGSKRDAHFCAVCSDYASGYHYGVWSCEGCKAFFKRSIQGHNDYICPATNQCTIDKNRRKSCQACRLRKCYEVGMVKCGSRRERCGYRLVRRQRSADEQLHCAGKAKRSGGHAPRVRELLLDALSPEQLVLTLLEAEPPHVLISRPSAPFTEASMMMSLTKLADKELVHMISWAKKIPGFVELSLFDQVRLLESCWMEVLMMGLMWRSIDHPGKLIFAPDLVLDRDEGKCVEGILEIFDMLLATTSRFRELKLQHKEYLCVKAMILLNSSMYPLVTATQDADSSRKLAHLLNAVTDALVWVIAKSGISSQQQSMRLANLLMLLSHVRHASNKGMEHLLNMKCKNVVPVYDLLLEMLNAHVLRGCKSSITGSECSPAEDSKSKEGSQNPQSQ
# assay-summary: qHTS assay to identify small molecule antagonists of the estrogen receptor beta (ER-beta) signaling pathway (AID 1259378)
# cond: ER-beta-UAS-bla HEK293T, beta-lactamase FRET ratio, 16 h; series mostly up to 92.4 µM
Records with an inconclusive call do not appear. Activity calls are given as the source filed them. Calls follow the shape of the dose curve; as a rule, active = well fitted inhibition curve with a large enough effect in the signal ratio in the repeat runs (not every such curve was filed as active); inconclusive = weak or mixed curves, or effect the other way; inactive = no such curve, though single readings can be large or run the other way; the % refers to the signal ratio.

# compound, outcome
rows = [
    ("NNc1ccccc1", "inactive"),
    ("OCc1ccco1", "inactive"),
    ("Cc1cccc(N)c1C", "inactive"),
    ("O=S(=O)(O)OOS(=O)(=O)O", "inactive"),
    ("CC(C)(C)C(=O)CCl", "inactive"),
    ("CC(C)c1cccc(C(C)C)c1O", "inactive"),
    ("O=C(O)COc1ccccc1", "inactive"),
    ("Nc1ccc(N)cc1", "inactive"),
    ("COP(=S)(OC)Oc1ccc(SC)c(C)c1", "inactive"),
    ("C=C(C)C(=O)OCC(CC)CCCC (stereo not given)", "inactive"),
    ("N#Cc1ccccn1", "inactive"),
    ("CCSC(=O)N1CCCCCC1", "inactive"),
    ("CNC(=O)O/N=C/C(C)(C)S(C)=O (stereo not given)", "inactive"),
    ("c1ccc2c(c1)CCCC2", "inactive"),
    ("CCCCC(CC)C(=O)Cl (stereo not given)", "inactive"),
    ("CNC(=O)O/N=C(\\SC)C(=O)N(C)C", "inactive"),
    ("Cc1ccc(O)c(C)c1", "inactive"),
    ("CN(C)C(=O)Nc1cccc(C(F)(F)F)c1", "inactive"),
    ("O=C(O)C1C(C(=O)O)C2(Cl)C(Cl)=C(Cl)C1(Cl)C2(Cl)Cl (stereo not given)", "inactive"),
    ("CSc1nnc(C(C)(C)C)c(=O)n1N", "inactive"),
    ("CC[N+](=O)[O-]", "inactive"),
    ("CNC(=O)O/N=C/C(C)(C)S(C)(=O)=O", "inactive"),
    ("Nc1ccc([As](=O)(O)O)cc1", "inactive"),
    ("Cc1cc(O)ccc1Cl", "inactive"),
    ("CC(=O)/C=C/c1ccccc1", "inactive"),
    ("C=CC(=O)OCCCCCC(C)C", "inactive"),
    ("CN1C(=O)CCS(=O)(=O)C1c1ccc(Cl)cc1 (stereo not given)", "inactive"),
    ("O=C(O)c1cc(Oc2ccc(C(F)(F)F)cc2Cl)ccc1[N+](=O)[O-]", "inactive"),
    ("C=CC#N", "inactive"),
    ("CCNc1nc(Cl)nc(NC(C)C)n1", "inactive"),
]

* * *

# assay-summary: A CellTox Green Cytotoxicity Assay to monitor cytotoxicity in HepG2 cells - 40 hour (AID 1224879); further: nearly all actives have a fitted effect of over 40% in size
# cond: CellTox Green fluorescence; series mostly up to 76.8 µM
Results filed as inconclusive are left out. Active and inactive are the calls of the source. Calls follow the shape of the dose curve; as a rule, active = well fitted activation curve with a large enough effect in the repeat runs; inconclusive = weak or mixed curves; inactive = flat fitted curve, though single readings scatter.
Outcome codes: true = active, false = inactive

# compound, assigned-category
rows = [
    ("Nc1cc(Cl)cc(Cl)c1", "false"),
    ("CNCC(O)c1ccc(O)cc1 (stereo not given)", "false"),
    ("Cc1cccc(C)c1NC(=O)CN1CCCC1=O", "false"),
    ("CNC(=O)O/N=C/C(C)(C)S(C)=O (stereo not given)", "false"),
    ("Cc1cccc(N)c1", "false"),
    ("O=C(O)c1cc(Oc2ccc(C(F)(F)F)cc2Cl)ccc1[N+](=O)[O-]", "false"),
    ("CNC(=O)O/N=C/C(C)(C)S(C)(=O)=O", "false"),
    ("Nc1ncc([N+](=O)[O-])s1", "false"),
    ("O=C(O)CCCc1ccc(N(CCCl)CCCl)cc1", "false"),
    ("ClCCOCCCl", "false"),
    ("Cc1cc(Cl)ccc1OC(C)C(=O)O (stereo not given)", "false"),
    ("COC(=O)Nc1cccc(OC(=O)Nc2cccc(C)c2)c1", "true"),
    ("Cc1ccc(N=C=O)cc1N=C=O", "false"),
    ("COP(=S)(OC)SCN1C(=O)c2ccccc2C1=O", "false"),
    ("CN1C(=O)CCS(=O)(=O)C1c1ccc(Cl)cc1 (stereo not given)", "false"),
    ("N#Cc1cccc(C#N)c1", "false"),
    ("CCOC(=O)CC(SP(=O)(OC)OC)C(=O)OCC (stereo not given)", "false"),
    ("N#Cc1ccccn1", "false"),
    ("OCCCCO", "false"),
    ("COc1cc(-c2ccc(N)c(OC)c2)ccc1N", "false"),
    ("COC(C)(C)CCCC(C)C/C=C/C(C)=C/C(=O)OC(C)C (stereo not given)", "false"),
    ("C=CC#N", "false"),
    ("CN(C)C(=O)Nc1cccc(C(F)(F)F)c1", "false"),
    ("COP(=S)(OC)Oc1ccc(SC)c(C)c1", "false"),
    ("Cc1ccc(N)cc1", "false"),
]

* * *

# assay-summary: Caspase-3/7 induction in CHO-K1 cells by small molecules, qHTS assay (AID 1346980); further: nearly all actives have a fitted effect of over 15% in size
# cond: CHO-K1 caspase-3/7 induction, Caspase-Glo luminescence, 17 h; series mostly up to 92.4 µM
Activity calls are given as the source filed them. Calls come from the whole dose curve; as a rule, active = well fitted activation curve with a large enough effect in the repeat runs; inconclusive = weak or mixed curves; inactive = flat fitted curve, though single readings scatter.
quantity-measured: outcome

# molecule, observed-result
records = [
    ("O=C/C=C/c1ccccc1", "inactive"),
    ("Cc1ccc(O)c(C)c1", "inactive"),
    ("FC(F)(F)c1ccc(Cl)cc1", "inactive"),
    ("CNC(=O)Oc1cccc2ccccc12", "inactive"),
    ("CC(C)c1cccc(C(C)C)c1O", "inactive"),
    ("Cc1cc(O)ccc1Cl", "inactive"),
    ("N#CN=C(N)N", "inactive"),
    ("CCOc1ccc(N)cc1", "inactive"),
    ("Sc1ccccc1", "inactive"),
    ("Cl/C=C/Cl", "inactive"),
    ("CCOP(=S)(OCC)Oc1cc(C)nc(C(C)C)n1", "inactive"),
    ("ClC(Cl)c1ccccc1", "inactive"),
    ("N#Cc1ccccn1", "inactive"),
    ("OCCCCO", "inactive"),
    ("CCSC(=O)N1CCCCCC1", "inactive"),
    ("Cc1cccc(N)c1C", "inactive"),
    ("CNc1cnn(-c2cccc(C(F)(F)F)c2)c(=O)c1Cl", "inactive"),
    ("O=P1(NCCCl)OCCCN1CCCl (configuration not stated)", "inactive"),
    ("CC(=O)C1CCOC1=O (configuration not stated)", "inactive"),
    ("O=C(O)C1C(C(=O)O)C2(Cl)C(Cl)=C(Cl)C1(Cl)C2(Cl)Cl (configuration not stated)", "inactive"),
    ("N#Cc1cccc(C#N)c1", "inactive"),
    ("CCOC(=O)CC(SP(=O)(OC)OC)C(=O)OCC (configuration not stated)", "inactive"),
    ("O=[N+]([O-])c1ccc(Cl)cc1", "inactive"),
    ("C=C(C)C(=O)OCC(CC)CCCC (configuration not stated)", "inactive"),
    ("CN(C)NC(=O)CCC(=O)O", "inactive"),
    ("NNc1ccccc1", "inactive"),
    ("Nc1cc(Cl)cc(Cl)c1", "inactive"),
]

Reference source for all entries: PubChem BioAssay (Tox21)
